Biological target: Aurora A/TPX2^1–43 (Homo sapiens, UniProt O14965)
Sequence (O14965 1-403): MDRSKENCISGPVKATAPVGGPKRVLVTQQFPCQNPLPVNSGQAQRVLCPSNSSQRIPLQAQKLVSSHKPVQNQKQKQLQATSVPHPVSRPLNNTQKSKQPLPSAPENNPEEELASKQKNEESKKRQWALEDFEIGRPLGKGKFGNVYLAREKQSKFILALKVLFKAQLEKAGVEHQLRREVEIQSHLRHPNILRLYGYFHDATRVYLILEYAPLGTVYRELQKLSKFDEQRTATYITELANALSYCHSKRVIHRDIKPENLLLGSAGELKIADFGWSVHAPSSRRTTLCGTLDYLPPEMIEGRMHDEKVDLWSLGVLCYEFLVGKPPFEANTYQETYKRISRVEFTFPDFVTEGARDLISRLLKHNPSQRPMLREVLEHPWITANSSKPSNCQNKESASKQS
Sequence (Q9ULW0 1-43 partner limits assumed): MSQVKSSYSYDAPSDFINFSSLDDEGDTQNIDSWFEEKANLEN
Experiment: Aurora A/TPX2^1–43 kinase assay (ADP-Glo)
Conditions: Aurora A-TPX2^1–43 Ki Mean ± SD, [ATP] = Km(ATP) (3 μM); 40 nM TPX2^1–43
endpoint: pKi
Just so you know, pKi here is -log10 of the concentration in molar units; reply with that number alone.

| test.smiles | pKi |
| --- | --- |
| CCS(=O)(=O)Nc1ccc2c(c1)/C(=C(/Nc1ccc(CN3CCCCC3)cc1)c1ccccc1)C(=O)N2 | 8.86 |

Data request: Record lookup: for Aurora A/TPX2^1–43 (Homo sapiens, UniProt O14965), what pKi belongs to O=C(c1cccc(Cl)c1F)N1CCN(Cc2cccc(Nc3nccs3)n2)CC1 ?
Data returned: 9.39

---

System: pLATS2(Ser 83) in HeLa cells
Assay: Substrate phosphorylation immunofluorescence assay, pLATS2(Ser 83), HeLa
Format: cell-based, human
Conditions: read-out: pLATS2 (Ser83) IC50; HeLa; 8 h inhibitor treatment
endpoint: IC50 (nM)
Answer with a number only, understood to be in nM.

Data request: Name the reported IC50 value associated with the compound O=C(O)[C@]1(Cc2cccc(Nc3nccs3)n2)CC[C@@H](Oc2cccc(Cl)c2F)CC1
Data returned: 610

---

Test system: HeLa cells
Assay: G2 duration live imaging assay (GFP-PCNA; H2B-RFP), HeLa
Format: cell-based, human
Conditions: Homo sapiens, read-out: G2/M (G2 duration) IC50
The reader will find reported pIC50 values listed item by item below.
Just so you know, pIC50 here is -log10 of the concentration in molar units; reply with that number alone.

| compound | pIC50 |
| --- | --- |
| COc1cc(Nc2ncc3c(n2)-c2ccc(Cl)cc2C(c2c(F)cccc2OC)=NC3)ccc1C(=O)O [MLN8237] | 6.89 |

Data request: Record lookup: for HeLa cells, what pIC50 belongs to O=C(O)c1ccc(Nc2ncc3c(n2)-c2ccc(Cl)cc2C(c2c(F)cccc2F)=NC3)cc1 [MLN8054] ?
Data returned: 6.13

---

Tested on: HeLa cells
Test: Cytokinesis assay (live imaging, YFP-α-tubulin; H2B-RFP), HeLa
Type: cell-based, human
Details: Homo sapiens, HeLa, read-out: Cytokinesis IC50
endpoint: IC50 (nM)
Answer with a number only, understood to be in nM.

Data request: Name the reported IC50 value associated with the compound CCN(CCO)CCCOc1ccc2c(Nc3cc(CC(=O)Nc4cccc(F)c4)[nH]n3)ncnc2c1
Data returned: 4

---

Tested on: pH3(Ser 28) in U2OS cells
Test: Substrate phosphorylation immunofluorescence assay, pH3(Ser 28), U2OS
Type: cell-based, human
Conditions: Homo sapiens, 8 h, read-out: pHistone H3 (Ser28) IC50
endpoint: pIC50
Just so you know, pIC50 here is -log10 of the concentration in molar units; reply with that number alone.

| test.smiles | tested.target | measured.result |
| --- | --- | --- |
| CCN(CCO)CCCOc1ccc2c(Nc3cc(CC(=O)Nc4cccc(F)c4)[nH]n3)ncnc2c1 | pH3(Ser 28) in U2OS cells | 7.92 |

Okay, next one:
Data request: Name the reported pIC50 value associated with the compound CCn1cc(-c2ccnc3[nH]c(-c4cccc(CN(C)C)c4)cc23)c(-c2ccc(NC(=O)N(C)C)cc2)n1
Data returned: 8.10

---

System: U2OS cells
Assay: Cytokinesis assay (live imaging, YFP-α-tubulin; H2B-RFP), U2OS
Assay type: cell-based
Settings: Homo sapiens, cytokinesis failure, read-out: Cytokinesis IC50
The reader will find reported pIC50 values listed item by item below.
Just so you know, pIC50 here is -log10 of the concentration in molar units; reply with that number alone.

The cases that follow already have their pIC50 on record.
| compound | pIC50 |
| --- | --- |
| COc1cc2c(Nc3ccc(NC(=O)c4ccccc4)cc3)ncnc2cc1OCCCN1CCOCC1 [ZM447439] | 6.21 |
| CCn1cc(-c2ccnc3[nH]c(-c4cccc(CN(C)C)c4)cc23)c(-c2ccc(NC(=O)N(C)C)cc2)n1 [GSK1070916] | 8.22 |

Data request: Name the reported pIC50 value associated with the compound CCS(=O)(=O)Nc1ccc2c(c1)/C(=C(/Nc1ccc(CN3CCCCC3)cc1)c1ccccc1)C(=O)N2 [Hesperadin]
Data returned: 7.77

---

Target: Aurora B/INCENP^783–918 (Homo sapiens, UniProt Q96GD4)
Sequence (Q96GD4 whole entry): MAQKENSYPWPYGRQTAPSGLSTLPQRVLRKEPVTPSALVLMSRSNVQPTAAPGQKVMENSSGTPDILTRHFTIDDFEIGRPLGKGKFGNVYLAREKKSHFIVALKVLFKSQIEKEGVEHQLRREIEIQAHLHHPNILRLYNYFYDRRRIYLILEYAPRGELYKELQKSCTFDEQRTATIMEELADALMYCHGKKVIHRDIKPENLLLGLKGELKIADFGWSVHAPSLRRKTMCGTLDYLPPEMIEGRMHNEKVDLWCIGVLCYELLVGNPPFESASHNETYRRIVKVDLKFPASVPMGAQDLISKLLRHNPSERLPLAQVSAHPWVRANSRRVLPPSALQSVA
Sequence (Q9NQS7 783-918 partner limits assumed): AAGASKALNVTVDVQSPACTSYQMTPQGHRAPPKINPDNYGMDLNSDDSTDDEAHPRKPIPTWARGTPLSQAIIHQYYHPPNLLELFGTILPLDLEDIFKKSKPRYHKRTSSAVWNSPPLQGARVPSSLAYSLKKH
Test: Aurora B/INCENP^783–918 kinase assay (ADP-Glo)
Settings: [ATP] = Km(ATP); example dataset
endpoint: pIC50
Just so you know, pIC50 here is -log10 of the concentration in molar units; reply with that number alone.

Data request: Name the reported pIC50 value associated with the compound O=C(c1cccc(Cl)c1F)N1CCN(Cc2cccc(Nc3nccs3)n2)CC1
Data returned: 6.93

---

Target: Aurora B/INCENP^783–918 (Homo sapiens)
Construct: purchased SignalChem
Experiment: Aurora B/INCENP^783–918 kinase assay (ADP-Glo)
Type: biochemical
Conditions: Aurora B-INCENP^783–918 Ki Mean ± SD, [ATP] = Km(ATP) (10 μM)
The reader will find reported Ki values listed item by item below.
Answer with a number only, understood to be in nM.

| test.smiles | tested.target | unit.abbreviation | measured.result |
| --- | --- | --- | --- |
| O=C(c1cccc(Cl)c1F)N1CCN(Cc2cccc(Nc3nccs3)n2)CC1 | Aurora B/INCENP^783–918 (Homo sapiens) | nM | 66.8 |

Data request: Name the reported Ki value associated with the compound CCS(=O)(=O)Nc1ccc2c(c1)/C(=C(/Nc1ccc(CN3CCCCC3)cc1)c1ccccc1)C(=O)N2
Data returned: 0.03

Attribution: paper PMC4685510
